These entries and their values trace back to PubChem BioAssay (NCATS).

- Test system: MCC-26
- procedure-text: qHTS assay to identify novel small-molecules to repurpose for Merkel cell carcinoma treatment (AID 1296009); further: nearly all actives have a fitted effect of over 60% in size
- condition-description: MCC and control cell lines, CellTiter-Glo viability, 72 h; series mostly up to 46 µM
Records with an inconclusive call do not appear. The source made the active and inactive calls. The call rests on the fitted dose curve; in most records, active means well fitted inhibition curve with a large enough effect; inconclusive means small, poorly fitted or top-dose-only effect; inactive means flat fitted curve, though single readings scatter.
Could you please pick one outcome from this set? 1.0 (active), 0.0 (inactive)

CCOC(=O)C(C#N)=C(c1ccccc1)c1ccccc1 = 0.0
Cc1c[nH]c2ccccc12 = 0.0
COc1cc(C(=S)N2CCOCC2)ccc1O = 0.0

Could you please tell me the result logged for CCCCCCCCCCCCOCCOCCOCCOCCOCCOCCOCCOCCOCCO in this assay? 0.0

Moving on to CCNC(=O)/C=C/c1cccc(Br)c1 0.0

Follow-up entry: O=C(O)CCC(=O)Nc1ccc(S(=O)(=O)Nc2nccs2)cc1 0.0

# repeat for O=C(O)CCNC(=O)c1ccccc1 0.0

Same thing, different compound: Cc1ccc(S(=O)(=O)NC(=O)NC2CCCC2)cc1 0.0

Further, for CC(C)Nc1cccnc1N1CCN(C(=O)c2cc3cc(NS(C)(=O)=O)ccc3[nH]2)CC1 ? 0.0
